Target: Ribonuclease A (RNaseA) (Bos taurus)
Sequence (P61823 27-150): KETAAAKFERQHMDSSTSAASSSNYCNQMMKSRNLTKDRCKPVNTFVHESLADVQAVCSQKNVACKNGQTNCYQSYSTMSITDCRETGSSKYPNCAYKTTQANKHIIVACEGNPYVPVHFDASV
Assay: reactive liquid sample DESI-MS of the native complex, ligand titration
ASSAY_METRIC: Kd
Remember to follow the number with its unit.

Task: Could you tell me which Kd is on file for Nc1ccn([C@@H]2O[C@H](COP(=O)(O)OP(=O)(O)OP(=O)(O)O)[C@@H](O)[C@H]2O)c(=O)n1 [CTP, cytidine 5′-triphosphate] ?
Result: 1.91 µM
